procedureText: Dissociation constant (pKa) by capillary electrophoresis
Format: physicochemical
setupConditions: capillary electrophoresis (CE), buffer solution I = 0.05, 25° C.
property: pKa

Lookup: Supply reported pKa belonging to this compound: C[C@H](NC(=O)c1c(C(F)F)nn(C)c1Oc1cccc(C(F)(F)F)c1)c1ccc(C(=O)O)cc1
Found: 4.1
